test: Pharmacokinetic evaluation: plasma concentration in rats; assay type: in vivo, Male SD rats; conditions: rat, plasma; ester po, 10 mg/kg equivalent to compound No. 2, calculated as free acid (No. 2), 1 h
Quantity: concentration at 1 h (ng/mL)
Reply numerically in ng/mL, unit not repeated.

Req: Please report the recorded concentration at 1 h for Cc1oc(=O)oc1COC(=O)/C(=C/C1CCCCC1)CP(=O)(O)CC(C)C [Compound No. 27] .
Resp: 11500

###

experiment: Pharmacokinetic evaluation: plasma concentration in dogs; type: in vivo, Male beagle dogs; conditions: dog, po 10 mg/kg, 4 h
Quantity: concentration at 4 h (ng/mL)
Reply numerically in ng/mL, unit not repeated.

Req: Please report the recorded concentration at 4 h for `CC(C)CP(=O)(O)C/C(=C\C1CCCCC1)C(=O)O` .
Resp: 3100
